- measured-target: PARP-1 enzyme (Homo sapiens)
- Construct: made in house
- Sequence (P09874 whole entry): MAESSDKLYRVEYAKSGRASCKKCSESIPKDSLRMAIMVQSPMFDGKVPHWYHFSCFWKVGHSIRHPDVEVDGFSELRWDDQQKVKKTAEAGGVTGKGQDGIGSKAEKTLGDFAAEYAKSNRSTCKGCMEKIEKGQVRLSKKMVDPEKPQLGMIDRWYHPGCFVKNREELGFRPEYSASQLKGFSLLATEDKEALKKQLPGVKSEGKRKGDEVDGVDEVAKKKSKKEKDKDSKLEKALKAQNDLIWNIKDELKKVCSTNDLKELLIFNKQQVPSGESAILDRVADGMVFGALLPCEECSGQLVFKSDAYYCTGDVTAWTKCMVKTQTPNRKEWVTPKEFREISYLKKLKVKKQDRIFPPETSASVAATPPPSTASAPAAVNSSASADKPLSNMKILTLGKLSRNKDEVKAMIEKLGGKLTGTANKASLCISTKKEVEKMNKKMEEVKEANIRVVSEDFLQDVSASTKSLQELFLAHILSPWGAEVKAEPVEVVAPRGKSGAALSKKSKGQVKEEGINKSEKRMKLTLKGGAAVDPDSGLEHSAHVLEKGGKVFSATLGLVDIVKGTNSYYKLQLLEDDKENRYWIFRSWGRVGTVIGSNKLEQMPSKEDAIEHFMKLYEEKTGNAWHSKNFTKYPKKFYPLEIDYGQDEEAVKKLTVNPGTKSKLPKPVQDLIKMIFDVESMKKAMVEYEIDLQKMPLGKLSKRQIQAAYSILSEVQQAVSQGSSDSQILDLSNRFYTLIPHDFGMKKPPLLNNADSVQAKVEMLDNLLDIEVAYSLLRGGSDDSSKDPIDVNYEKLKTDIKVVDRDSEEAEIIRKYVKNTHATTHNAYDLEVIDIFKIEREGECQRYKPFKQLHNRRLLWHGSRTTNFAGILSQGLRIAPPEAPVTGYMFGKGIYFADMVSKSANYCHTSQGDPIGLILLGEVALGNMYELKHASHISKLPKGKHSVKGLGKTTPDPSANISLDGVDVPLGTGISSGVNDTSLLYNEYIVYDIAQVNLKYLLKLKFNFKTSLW
- experimental-protocol: In vitro filtration assay for PARP-1 inhibitory activity
- Assay type: biochemical
- condition-notes: nicked DNA activated PARP-1, [32P]-NAD, histones; read-out: In vitro filtration assay pIC50 (converted)
- Experimental: In Vitro Filtration Assay for PARP-1 Inhibitory Activity Compounds of the present invention were tested in an in vitro filtration assay assessing PARP-1 activity (triggered in the presence of nicked DNA) by means of its histone poly (ADP-ribosyl)ation activity using [^32P]-NAD as ADP-ribosyl donor. […] For each sample, the amount of cpm was expressed as a percentage of the mean cpm value of the controls. […]
property-measured: IC50 (µM)
Unit µM implied. Number only.

# input compound: CCc1cc2cc(C(CCN3CCN(C)CC3)C3CCCCC3)ccc2[nH]c1=O (stereo not shown) ; wanted: its IC50 5.06

Recorded IC50 of CCc1cc2cc(C(O)CN3CCN(C)CC3)ccc2[nH]c1=O (stereo not shown) , please. 1.84

Fill in: IC50 of CCc1cc2cc(C(OCCN(C)C)C3CCCCC3)ccc2[nH]c1=O (stereo not shown) is ___ 6.73

Name the reported IC50 value associated with the compound CCc1cc2cc(C(C3CCCCC3)N3CCC(O)(c4cncn4C)CC3)ccc2[nH]c1=O (stereo not shown) 1.35

# query: IC50 of entry `CCc1cc2cc(C(=O)CN3CCOCC3)ccc2[nH]c1=O` 2.61

// query IC50 value for entry CCc1cc2cc(C(C3CC=CCC3)N3CCC(O)CC3)ccc2[nH]c1=O (stereo not shown) 0.785

Next:
What does the data say about its IC50? Entry: CCc1cc2cc(C(NCCN(C)C)C3CCCCC3)ccc2[nH]c1=O (stereo not shown) 6.01

Endpoint output: IC50 of CCc1cc2cc(C(C3CCCCC3)N3CCC(O)CC3)ccc2[nH]c1=O (stereo not shown) . Value? 2.43

Need IC50 of `CCc1cc2cc([C@@H](NCCN(C)C)C3CCCCC3)ccc2[nH]c1=O` , thanks. 5.42

Returns the measured IC50 for the input compound. Input: CCc1cc2cc(C(O)CN3CCOCC3)ccc2[nH]c1=O (stereo not shown) 2.54

Looking for the measured IC50 of `CCc1cc2cc([C@@H](OCCN(C)C)C3CCCCC3)ccc2[nH]c1=O` , can you help? 4.38

State the recorded IC50 for this entry: CCc1cc2cc(C(c3cccs3)N3CCC(NCCOC)CC3)ccc2[nH]c1=O (stereo not shown) 2.27

What does the record list as IC50 for CCc1cc2cc(C(C3CCCCC3)N3CCC(N4CCOCC4)CC3)ccc2[nH]c1=O (stereo not shown) ? 3.4

Item CCc1cc2cc(C(C3CCCCC3)N3CCC4(CC3)CO4)ccc2[nH]c1=O (stereo not shown) has what recorded IC50? 1.52

Which IC50 is reported for this compound? CCc1cc2cc(C(C3CCCCC3)N3CCC(NCc4cccnc4)CC3)ccc2[nH]c1=O (stereo not shown) 8.26

What value of IC50 has been recorded for this entry: CCc1cc2cc(C(C(CC)CC)N3CCC(=O)CC3)ccc2[nH]c1=O (stereo not shown) 2.56

Endpoint output: IC50 of CCc1cc2cc(C(c3ccsc3)N3CCC(NCCOC)CC3)ccc2[nH]c1=O (stereo not shown) . Value? 2.83

Quick one: IC50 for CCc1cc2cc(C(c3ccsc3)N3CCC(=O)CC3)ccc2[nH]c1=O (stereo not shown) ? 1.26

# lookup: IC50 of CCc1cc2cc(C(CC(C)C)N3CCC(=O)CC3)ccc2[nH]c1=O (stereo not shown) 1.84
